Species: Rattus norvegicus
assay_summary: Open TG-GATES - Regimen: Single
Format: toxicity, organism-based, Sprague-Dawley
Set-up: regimen Single, gender Male, age 6 weeks
assay_conditions: in vivo, po, 0 mg/kg, 9 h, tissue Kidney, route gavage, dose level Control
Catalogue of KIDNEY_TOTAL values
readout_name: KIDNEY_TOTAL

smiles_data: Clc1ccccc1CN1CCc2sccc2C1
readout_name: KIDNEY_TOTAL
result: 1.8 g
--
smiles_data: COc1ccc2c(c1)c(CC(=O)O)c(C)n2C(=O)c1ccc(Cl)cc1
readout_name: KIDNEY_TOTAL
result: 1.9 g
--
smiles_data: CN(C)CCC=C1c2ccccc2CCc2ccccc21
readout_name: KIDNEY_TOTAL
result: 1.7 g
